- Tested on: Wnt5a (protein binding on small-molecule microarray)
- assay-method-text: small molecules binding Wnt5a protein – biophysical, small-molecule microarray, 635/667 nm fluorescence, primary screen (AID 1142);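 further: fluorescence read at 667 nm with signal to noise per printed feature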
- condition-set: 635 nm fluorescence, higher = more signal
composite z-score overview

Examples with answers:
O=C1OCCC/C=C\[C@H]2OC34C=CCN(CCN5CCOCC5)C(=O)[C@H]3N(CCO)C(=O)[C@@H]4C12 (stereo partly specified) = -0.425
NC(=O)[C@@]1(CCS(=O)(=O)c2ccccc2)N=C(c2ccc(OCCCO)cc2)O[C@H]1c1ccccc1 = 0.211

System Wnt5a (protein binding on small-molecule microarray). Read-out composite z-score. Item CC(C)NC(=O)[C@@H]1c2ccccc2C(=O)N(C2CCCCC2)[C@H]1c1ccc(CO)cc1 . Report value.
0.242

---

# composite z-score per record follows
- test-target: Torsin-1A (Homo sapiens) (UniProt O14656)
- Sequence (O14656 whole entry, looked up): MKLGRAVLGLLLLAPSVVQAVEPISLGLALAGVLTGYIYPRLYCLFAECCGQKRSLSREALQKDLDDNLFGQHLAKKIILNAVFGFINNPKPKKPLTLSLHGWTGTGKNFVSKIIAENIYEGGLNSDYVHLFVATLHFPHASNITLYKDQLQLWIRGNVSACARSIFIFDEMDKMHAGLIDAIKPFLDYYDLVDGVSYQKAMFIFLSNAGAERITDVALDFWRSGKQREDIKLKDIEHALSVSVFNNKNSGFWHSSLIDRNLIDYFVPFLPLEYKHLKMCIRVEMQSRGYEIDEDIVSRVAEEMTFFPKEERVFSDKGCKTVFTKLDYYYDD
- assay-method-text: TOR1A wild-type binding on microarray – cell lysate, small-molecule microarray, lysate, 635/667 nm, primary screen (AID 1149)
- condition-set: COS7 hTOR1A-WT lysate, 635 nm fluorescence, higher = more signal
Could you respond with only the numeric value?

Illustrative cases are given below, each with its answer.
C=CC[C@@]1(C(=O)NCCN2CCOCC2)N=C(c2ccc(OCCCO)cc2)O[C@@H]1c1ccccc1CN=[N+]=[N-] = 0.598
CCCNC(=O)[C@@]1(C)c2ccccc2C(=O)N(Cc2cc(F)cc(C(F)(F)F)c2)[C@H]1c1ccc(CO)cc1 = -2.08
[N-]=[N+]=NCc1ccccc1C[C@]1(C(=O)NCC(O)CO)COC(c2ccc(OCCCO)cc2)=N1 (stereo partly drawn) = 0.842
C[N+](C)(C)CCCCNC(=O)[C@H]1C[C@H]2C(=O)N3CCC[C@H]3C(=O)N2[C@H]1c1ccc(O)cc1 = 1.84
CN(C)CCCN1C(=O)[C@@]2(c3ccc([N+](=O)[O-])cc3)CC(=O)N(C3CCCCC3)[C@@H]2c2ccc(CO)cc21 = -0.954
CC(C)(C)OC(=O)CC[C@@]1(C(N)=O)N=C(c2ccc(OCCCO)cc2)O[C@@H]1c1ccccc1N=[N+]=[N-] = 2.08
C=CC[C@@]1(C(=O)NCc2ccccc2)N=C(c2ccc(OCCCO)cc2)O[C@@H]1c1ccccc1CN=[N+]=[N-] = -0.805

Kindly review the next molecule as well.
Report the value of composite z-score obtained on Torsin-1A (Homo sapiens) (UniProt O14656) for C=C(CCCC)C(=O)CC[C@H](OC(=O)c1ccccc1-c1ccccc1C(=O)O)c1ccc(CO)o1 .
0.472

---

- Test system: XIP peptide (Xip251-270)
- assay-method-text: compounds binding XIP fragment 251-270 – biochemical, small-molecule microarray, fluorescence 635/667 nm, 0.5 µg/mL protein, primary screen (AID 1183)
- condition-set: fluorescence 635 nm, higher = more signal
quantity-measured: composite z-score
Respond with the number and no other words.

Record excerpt, results attached:
C=C(CCCC)C(=O)CC[C@H](OC(=O)c1ccccc1-c1ccccc1C(=O)O)c1ccc(CO)o1 = 0.582
O=S(=O)(NCCCO)c1ccc(Br)cc1 = 0.0425
CCCCN1CC=CC23O[C@@H]4C=CCCOC(=O)C4[C@H]2C(=O)N(CCCO)[C@@H]3C1=O (stereo not given in full) = -0.624
C=C(COC)C(=O)CC[C@H](OC(=O)c1cccnc1)c1ccccc1OCCO = 0.444
CN(C)CCCC[C@@H]1NC(=O)[C@@H]2C[C@H](C(=O)NCCCCCCN)[C@H](c3ccc(O)cc3)N2C1=O = 0.0252

Given C=C[C@H](C)[C@H](OC(=O)Nc1ccc(OC)cc1)c1ccc(O)c2ccccc12 , respond with its composite z-score.
-0.147

For the compound CCOC(=O)C1=C[C@@H](C(C)(C)C)N(S(=O)(=O)c2ccc(C)cc2)[C@H]1c1ccc(Cl)c(Cl)c1 , report composite z-score.
0.762

For the compound COCCOC(=O)N1C(=O)[C@@]2(c3cc(C#CCCO)ccc31)[C@H](C(=O)NC[C@H](O)c1ccccc1)[C@H]1C(=O)O[C@H](c3ccccc3)[C@H](c3ccccc3)N1[C@@H]2c1ccc(OCCO)cc1 , report composite z-score.
0.577

For the compound [N-]=[N+]=Nc1ccccc1C[C@]1(C(=O)N2CCCCC2)N=C(c2ccc(OCCCO)cc2)O[C@H]1c1ccccc1N=[N+]=[N-] , give its reported composite z-score.
0.659

---

- test-target: Left-right determination factor 2 (Homo sapiens)
- assay-method-text: small molecules binding LEFTY2 protein – biochemical, small-molecule microarray, 635 nm fluorescence scan, primary screen (AID 1110)
- condition-set: higher = more signal
Quick rule for you: composite z-score at -0.9 or higher means label 1, lower means label 0.

// known answers, use as guide
CC(=O)NCCCC[C@@H]1NC(=O)[C@@H]2C[C@H](C(=O)NCc3ccc(F)cc3)[C@H](c3ccc(O)cc3)N2C1=O = label 1
[N-]=[N+]=NCc1ccccc1C[C@]1(C(=O)N2CCOCC2)N=C(c2ccc(OCCCO)cc2)O[C@H]1c1ccccc1 = label 1
CCOC(=O)N1C(c2ccc(OCCCO)cc2)=NC(C(=O)OC)N1C(=O)OCC (stereo not drawn) = label 1
CC(C)NC(=O)[C@@]1(c2ccc([N+](=O)[O-])cc2)CC(=O)N(C(C)C)[C@@H]1c1ccc(CO)cc1 = label 0
C=C(CCCC)C(=O)CC[C@H](OC(=O)c1ccccc1-c1ccccc1C(=O)O)c1ccc(CO)o1 = label 1

Confirm if composite z-score reported for the compound O[C@@H](Cc1ccccc1)[C@@H](/C=C/c1ccccc1)NCc1ccccc1Br is -0.9 or above.
label 0

Check this compound for composite z-score at or above -0.9: O=C1O[C@@H](c2ccccc2)[C@@H](c2ccccc2)N2[C@@H](c3ccc(O)cc3)[C@]3(C(=O)Nc4ccc(C#CCCO)cc43)[C@@H](C(=O)O)[C@H]12
label 1

---

- test-target: Dickkopf-related protein 1 (Homo sapiens) (UniProt O94907)
- Sequence (O94907 whole entry, looked up): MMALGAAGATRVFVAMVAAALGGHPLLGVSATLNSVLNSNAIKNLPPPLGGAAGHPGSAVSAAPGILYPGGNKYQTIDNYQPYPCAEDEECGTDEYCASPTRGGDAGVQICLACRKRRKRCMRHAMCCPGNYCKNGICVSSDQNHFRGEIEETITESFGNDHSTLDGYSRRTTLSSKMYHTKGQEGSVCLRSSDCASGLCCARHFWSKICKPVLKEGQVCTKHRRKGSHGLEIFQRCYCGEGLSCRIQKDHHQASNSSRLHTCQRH
- assay-method-text: small molecules binding DKK1 protein – biochemical, small-molecule microarray, 635 nm fluorescence scan, primary screen (AID 1106);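 further: score merges emission near 667 nm with signal to noise over three replicate slides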
- condition-set: higher = more signal
quantity-measured: composite z-score

Please review the following examples before continuing.
CCCCC(=C=CC[C@H](O)c1ccccc1OCCO)C[C@H](O)c1cc(Cl)cc(Cl)c1O = -0.429
CO[C@H]1O[C@H](CO)[C@@H](OC(=O)Nc2ccc3c(c2)OCO3)[C@H](OC(=O)Nc2ccc3c(c2)OCO3)[C@H]1OC(=O)Nc1ccc2c(c1)OCO2 = 0.101
O=C(CS)NCCCCCCNC(=O)[C@H]1C[C@H]2C(=O)N3CCC[C@H]3C(=O)N2[C@H]1c1ccc(O)cc1 = 0.317

Now take the following compound into account.
// fetch composite z-score given entry Cc1ccc(S[C@]2(C(=O)NCCCN(C)C)CC(=O)N(C(C)C)[C@@H]2c2ccc(CO)cc2I)cc1
-0.827

---

- assay-method-text: compound effects on multiple myeloma cell viability – MM1S, calcein-AM fluorescence, 48 h, basal, profiling panel (AID 1165);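 further: viability of MM1S multiple myeloma cells under basal unstimulated conditions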
- condition-set: higher = more signal
// label = satisfied if z-score is not less than -2, otherwise not satisfied

Example cases with answers are listed next.
CCCC[C@@H]1C[C@H]1[C@@H](NC(=O)c1ccccc1)c1ccccc1 = satisfied
CCCNC(=O)[C@@]1(c2ccc([N+](=O)[O-])cc2)CC(=O)N(CC23CC4CC(CC(C4)C2)C3)[C@@H]1c1ccc(CO)cc1I = not satisfied
O=C1C[C@@](C(=O)O)(c2ccc([N+](=O)[O-])cc2)[C@@H](c2ccc(CO)cc2I)N1C1CCCCC1 = not satisfied

For this molecule, is measured z-score -2 or higher? C=CCC(OC(C)=O)[C@@H]1[C@@H](N(Cc2ccc(-c3cccc(C(F)(F)F)c3)o2)C(=O)Cc2ccc(OC)cc2)c2cc(OCCCO)ccc2N1C(=O)Cc1ccc(OC)cc1 (some centres undefined)
satisfied

---

- assay-method-text: optical density shifts of acrAB sulA E. coli – strain DRC41, OD650, 48 h, E. coli filamentation inducer project, primary screen (AID 1152);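 further: E. coli MC1000 strain DRC41 lacking acrAB efflux pump and sulA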
- condition-set: higher = more signal, called active from +8 up or from −8 down
Label rule, in plain words: z-score of 0.6 and up is Condition met, under 0.6 is Condition not met.

CC(C)[C@H]1COC(=O)N1C(=O)[C@H]1[C@@H](c2ccccc2)N(c2ccccc2)O[C@@H]1C = Condition met

Confirm if z-score reported for the molecule COCCCNC(=O)[C@]1(Cc2ccccc2N=[N+]=[N-])N=C(c2ccc(OCCCO)cc2)O[C@@H]1c1ccccc1CN=[N+]=[N-] is 0.6 or above.
Condition met

Does the reported z-score for O=C1OCCC/C=C\[C@H]2OC34C=CCN(Cn5nnc6ccccc65)C(=O)[C@H]3N(CCCO)C(=O)[C@@H]4C12 (stereo partly drawn) fall at or above the 0.6 mark?
Condition not met

Please tell me: is the molecule CC(C)(C)OC(=O)CC[C@@]1(C(N)=O)N=C(c2ccc(OCCCO)cc2)O[C@@H]1c1ccccc1N=[N+]=[N-] at or over 0.6 in terms of z-score?
Condition met

hey, is z-score for this one >= 0.6? C=CCCN(CC#C[C@H]1Oc2ccccc2S(=O)(=O)N2CCC[C@@H]12)S(=O)(=O)c1ccc(C)cc1
Condition not met

Hello, I need to know if COC(=O)[C@@]1(Cc2ccc(F)cc2)[C@H]2c3cc(C(=O)N(C)C)n(CCCNc4ccc(C(F)(F)F)cc4Cl)c3C[C@H]2CN1C(=O)c1ccccc1 has measured z-score not below 0.6. Thanks!
Condition not met

Hi team, for CCCCN1CC=CC23O[C@@H]4C=CCCOC(=O)C4[C@H]2C(=O)N(CCCO)[C@@H]3C1=O (stereo partly drawn) , is the recorded z-score at or above 0.6?
Condition met
